Please provide measured cytotoxicity at 70.5 h for the entries that follow.
# EXPERIMENTAL_PROTOCOL: Human HepG2 cell viability assay in 384 well format
# Type: toxicity, cell-based
# Design: dose 125 nL, time 70.5 hour; concentration not given beside the values
# EXPERIMENTAL_PARAMETERS: HepG2 cells, read-out: Inhibition
Give bare numbers, in %.

The following molecules have reported results that may help.
| MOLECULE | RECORDED_VALUE |
| --- | --- |
| Cc1ccccc1CNCc1cc(Cl)ccc1O | -11.5 |
| O=C(c1csc(-c2nnc[nH]2)n1)N1CCCCC1Cn1cccn1 (configuration not stated) | 1.45 |
| CC(NC(=O)CN1CCN(Cc2ccc(Br)s2)CC1)c1ccccc1 (configuration not stated) | 25.3 |
| CN(C)CCOCC1CN(Cc2cccs2)Cc2ccnn2C1 (configuration not stated) | -9.15 |
| Cc1nccc(-c2cccc(NCc3nc(C(C)C)no3)c2)n1 | -10.6 |

Quick request: cytotoxicity at 70.5 h for each listed item, please.
1. COc1ccc(CN2CC(O)CN(C(=O)c3ccccc3)CC2=O)cc1 (configuration not stated)
2. CCN(Cc1ccoc1)C(=O)NC1CCN(CC2CC2)C1 (configuration not stated)
3. CCc1nnsc1C(=O)N1CCOC(c2nc(C)n[nH]2)C1 (configuration not stated)
4. COc1ccc(-c2nnc(SCC(=O)NCC(C)C)[nH]2)c(OC)c1

1: 7.16; 2: -5.67; 3: 1.73; 4: -7.35

Quick request: cytotoxicity at 70.5 h for each listed item, please.
1. CC1COCCN1Cc1nc(-c2cccc(Br)c2)no1 (configuration not stated)
2. O=C(c1cccs1)N1CCN(CC2CC2)c2ncccc2C1
3. Cc1nn(C)c(Oc2cccnc2)c1NC(=O)C1CCCO1 (configuration not stated)
4. O=c1ccc2c(n1CC1CCOCC1)CCN(Cc1ccoc1)CC2
5. O=C(NCc1ccncc1)N1CCSCC1CCO (configuration not stated)
6. CCc1ccc(CN2CC[C@@H]3NC(=O)CC[C@@H]32)o1

1. 13.8
2. -21
3. -3.71
4. 49.3
5. 10.5
6. 27

Quick request: cytotoxicity at 70.5 h for each listed item, please.
1. COc1ccc(-c2cc(N)ccn2)c(OC)c1OC
2. CC(C)N(C)S(=O)(=O)c1ccc2c(c1)CCN(C(=O)c1cccnn1)C2
3. Cc1nc(-c2ccccc2C)n(CC(=O)NC(C)C2CC2)n1 (configuration not stated)

-9.71
-13.5
-5.7

Quick request: cytotoxicity at 70.5 h for each listed item, please.
1. CN(CC(=O)N1CCOCC(CO)C1)Cc1ccc(F)cc1 (configuration not stated)
2. CN1CCN(C(=O)c2cn3ccsc3n2)[C@H]2CS(=O)(=O)C[C@H]21
3. Cn1cnc2c1C(COCC1CC1)CN(c1ncccn1)C2 (configuration not stated)
4. COc1ccc(S(=O)(=O)N2CCC[C@@H]3CN(C(=O)C4CC4)C[C@@H]32)cc1
5. Cc1nccn1-c1nccnc1C1CCCN(C2CCCC2)C1 (configuration not stated)
6. N#Cc1ncn(CCC(=O)Nc2ccc(F)c(F)c2)n1
7. Cc1cccc(CN(Cc2ccc(C)o2)C2CC(C)(C)NC(C)(C)C2)n1

-12.7
-11.3
2.85
50
14.2
-9.3
-9.61

----------
# EXPERIMENTAL_PROTOCOL: Human HepG2 cell viability assay in 384 well format
# Format: toxicity, cell-based
# Set-up: dose 125 nL, time 70.5 hour; concentration not given beside the values
# EXPERIMENTAL_PARAMETERS: HepG2 cells, read-out: Inhibition
Please provide measured cytotoxicity at 70.5 h for the entries that follow.
One number for each entry, in %.

| COMPOUND | UNITS_OF_MEASURE | cytotoxicity at 70.5 h |
| --- | --- | --- |
| Cn1cc(C[C@H]2[C@H](N3CCOCC3)CCN2C(=O)c2ccco2)cn1 | % | 5.32 |
| Cc1cc(C)c2cc(C(=O)N3CCNC(=O)C3)[nH]c2c1 | % | -8 |
| COc1ccc(CC(=O)N2CCC(c3n[nH]c(C4CC4)n3)CC2)cc1 | % | 2.82 |

Quick request: cytotoxicity at 70.5 h for each listed item, please.
1. Cc1ccc(C)c(-n2ncc(NC(=O)NC3(C)CCOC3)c2C)c1 (centres undefined)
2. CCN(CC)C(=O)[C@@H]1C[C@@H](n2cc(-c3ccccn3)nn2)CN1
3. CC(C)=CCN1CCN(C(=O)c2cc(C(C)C)on2)[C@H]2CS(=O)(=O)C[C@H]21
4. Cn1cc(CN2CCC[C@]3(C[C@@H](Oc4ccccn4)CO3)C2)cn1
5. CC(CN1CCC2(CC1)N=C(c1cccnc1)NC2=O)c1ccccc1 (centres undefined)
6. Clc1cccc2c1CCN(Cc1nc(CC3CC3)no1)C2
7. CCc1cnc(NCC(c2cccnc2)N2CCOCC2)nc1 (centres undefined)
8. O=C(c1ccccc1)C1CCN(Cc2cc3c(cc2O)CCC3)CC1

1. 14.4
2. -3.65
3. -8.01
4. -6.69
5. -7.3
6. -5.71
7. -1.2
8. 33.9

Quick request: cytotoxicity at 70.5 h for each listed item, please.
1. CCn1cc(NC(=O)NCCc2ccc3c(c2)OCO3)cn1
2. COC(=O)c1cc(C2CC2)nc2c(Cl)cnn12
3. N#CC1(NC(=O)c2ccc(F)cc2OC(F)F)CCOCC1

[-10.2, 24.9, -10.6]
